Please respond with reported CC50 for every item in the list.
Test: Antiproliferative effect on MT-4 cells
Assay type: cell-based, human
Settings: human, mt-4 cells

Cc1cn([C@H]2C[C@H](F)[C@@H](CO)O2)c(=O)[nH]c1=S : 480 µM
Cc1cn([C@H]2C=C[C@@H](CO)O2)c(=O)[nH]c1=S : 350 µM
CSc1nc(=O)n([C@H]2C[C@H](F)[C@@H](CO)O2)cc1C : > 1000 µM
Cc1cnc(=O)n([C@H]2C[C@H](F)[C@@H](CO)O2)c1 : > 400 µM
CSc1ccn([C@H]2C[C@H](F)[C@@H](CO)O2)c(=O)n1 : 50 µM

Hi, could you look up CC50 for each item in my list?
1. O=c1ncccn1[C@H]1C[C@H](F)[C@@H](CO)O1
2. O=c1nc(NO)ccn1[C@H]1C[C@H](F)[C@@H](CO)O1
3. Cc1cn([C@H]2C[C@H](F)[C@@H](CO)O2)c(=O)nc1NO
4. O=c1[nH]c(=S)ccn1[C@H]1C[C@H](F)[C@@H](CO)O1

1: > 800 µM; 2: 100 µM; 3: 300 µM; 4: 150 µM
